- tested_target: Human Cav2.2 channels (Homo sapiens)
- Construct: expressed in transfected cells
- Sequence (Q00975 whole entry): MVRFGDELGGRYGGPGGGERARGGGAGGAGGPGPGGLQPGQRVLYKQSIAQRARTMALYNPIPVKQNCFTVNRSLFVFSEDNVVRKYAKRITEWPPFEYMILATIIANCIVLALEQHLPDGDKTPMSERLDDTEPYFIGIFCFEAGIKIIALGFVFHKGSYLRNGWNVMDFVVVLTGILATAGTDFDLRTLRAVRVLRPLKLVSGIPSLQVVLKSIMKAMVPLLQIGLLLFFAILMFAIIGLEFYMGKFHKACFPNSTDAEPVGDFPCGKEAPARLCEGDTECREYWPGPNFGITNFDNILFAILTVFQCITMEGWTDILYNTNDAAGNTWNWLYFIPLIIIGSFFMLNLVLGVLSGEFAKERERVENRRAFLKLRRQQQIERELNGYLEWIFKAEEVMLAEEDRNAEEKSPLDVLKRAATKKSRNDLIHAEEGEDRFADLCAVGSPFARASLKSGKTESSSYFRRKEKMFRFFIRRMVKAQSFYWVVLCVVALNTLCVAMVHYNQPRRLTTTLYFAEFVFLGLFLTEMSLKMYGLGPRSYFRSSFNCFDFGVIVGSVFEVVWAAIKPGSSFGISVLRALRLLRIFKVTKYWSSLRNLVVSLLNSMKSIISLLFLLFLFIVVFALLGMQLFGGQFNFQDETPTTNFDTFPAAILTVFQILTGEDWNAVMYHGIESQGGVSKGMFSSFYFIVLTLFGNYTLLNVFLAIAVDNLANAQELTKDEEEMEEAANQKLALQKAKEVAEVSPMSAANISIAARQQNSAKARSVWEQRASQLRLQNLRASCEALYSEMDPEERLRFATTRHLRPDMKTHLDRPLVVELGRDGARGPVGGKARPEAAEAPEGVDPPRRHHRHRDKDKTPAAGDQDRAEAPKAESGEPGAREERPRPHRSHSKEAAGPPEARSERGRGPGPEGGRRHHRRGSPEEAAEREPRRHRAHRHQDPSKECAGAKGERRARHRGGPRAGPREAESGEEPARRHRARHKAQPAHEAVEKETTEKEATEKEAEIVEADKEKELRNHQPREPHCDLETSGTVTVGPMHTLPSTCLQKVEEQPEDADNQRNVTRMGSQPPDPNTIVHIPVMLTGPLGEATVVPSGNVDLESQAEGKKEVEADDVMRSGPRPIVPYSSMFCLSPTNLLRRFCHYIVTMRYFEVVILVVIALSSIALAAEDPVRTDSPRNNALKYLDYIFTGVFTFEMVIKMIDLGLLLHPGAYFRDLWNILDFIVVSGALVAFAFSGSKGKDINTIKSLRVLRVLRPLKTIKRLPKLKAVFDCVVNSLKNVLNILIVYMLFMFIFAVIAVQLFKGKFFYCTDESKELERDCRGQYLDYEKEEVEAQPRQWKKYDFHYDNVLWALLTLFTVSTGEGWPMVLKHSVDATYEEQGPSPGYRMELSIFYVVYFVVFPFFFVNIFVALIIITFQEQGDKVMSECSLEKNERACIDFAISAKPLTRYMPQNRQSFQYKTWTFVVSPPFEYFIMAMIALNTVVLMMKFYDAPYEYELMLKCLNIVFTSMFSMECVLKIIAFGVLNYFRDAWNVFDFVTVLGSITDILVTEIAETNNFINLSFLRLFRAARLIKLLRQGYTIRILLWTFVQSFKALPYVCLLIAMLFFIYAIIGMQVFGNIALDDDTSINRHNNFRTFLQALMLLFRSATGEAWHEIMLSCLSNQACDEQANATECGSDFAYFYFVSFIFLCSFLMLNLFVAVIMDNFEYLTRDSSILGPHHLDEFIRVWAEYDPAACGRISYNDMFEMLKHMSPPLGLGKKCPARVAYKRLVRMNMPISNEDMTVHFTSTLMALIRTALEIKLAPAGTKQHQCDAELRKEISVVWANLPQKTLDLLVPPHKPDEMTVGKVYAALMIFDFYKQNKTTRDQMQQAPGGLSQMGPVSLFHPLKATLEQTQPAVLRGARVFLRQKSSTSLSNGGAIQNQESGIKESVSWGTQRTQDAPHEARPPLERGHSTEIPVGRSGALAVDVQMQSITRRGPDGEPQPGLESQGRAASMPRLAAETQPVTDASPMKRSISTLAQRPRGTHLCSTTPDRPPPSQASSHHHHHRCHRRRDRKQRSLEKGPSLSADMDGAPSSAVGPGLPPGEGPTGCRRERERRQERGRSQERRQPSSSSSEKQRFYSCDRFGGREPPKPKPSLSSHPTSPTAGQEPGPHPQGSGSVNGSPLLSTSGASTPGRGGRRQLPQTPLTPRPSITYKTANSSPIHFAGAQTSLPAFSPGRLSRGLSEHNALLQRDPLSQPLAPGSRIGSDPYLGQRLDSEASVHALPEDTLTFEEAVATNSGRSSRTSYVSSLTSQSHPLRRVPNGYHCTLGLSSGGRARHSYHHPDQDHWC
- Sequence (P54289 25-956 partner limits assumed): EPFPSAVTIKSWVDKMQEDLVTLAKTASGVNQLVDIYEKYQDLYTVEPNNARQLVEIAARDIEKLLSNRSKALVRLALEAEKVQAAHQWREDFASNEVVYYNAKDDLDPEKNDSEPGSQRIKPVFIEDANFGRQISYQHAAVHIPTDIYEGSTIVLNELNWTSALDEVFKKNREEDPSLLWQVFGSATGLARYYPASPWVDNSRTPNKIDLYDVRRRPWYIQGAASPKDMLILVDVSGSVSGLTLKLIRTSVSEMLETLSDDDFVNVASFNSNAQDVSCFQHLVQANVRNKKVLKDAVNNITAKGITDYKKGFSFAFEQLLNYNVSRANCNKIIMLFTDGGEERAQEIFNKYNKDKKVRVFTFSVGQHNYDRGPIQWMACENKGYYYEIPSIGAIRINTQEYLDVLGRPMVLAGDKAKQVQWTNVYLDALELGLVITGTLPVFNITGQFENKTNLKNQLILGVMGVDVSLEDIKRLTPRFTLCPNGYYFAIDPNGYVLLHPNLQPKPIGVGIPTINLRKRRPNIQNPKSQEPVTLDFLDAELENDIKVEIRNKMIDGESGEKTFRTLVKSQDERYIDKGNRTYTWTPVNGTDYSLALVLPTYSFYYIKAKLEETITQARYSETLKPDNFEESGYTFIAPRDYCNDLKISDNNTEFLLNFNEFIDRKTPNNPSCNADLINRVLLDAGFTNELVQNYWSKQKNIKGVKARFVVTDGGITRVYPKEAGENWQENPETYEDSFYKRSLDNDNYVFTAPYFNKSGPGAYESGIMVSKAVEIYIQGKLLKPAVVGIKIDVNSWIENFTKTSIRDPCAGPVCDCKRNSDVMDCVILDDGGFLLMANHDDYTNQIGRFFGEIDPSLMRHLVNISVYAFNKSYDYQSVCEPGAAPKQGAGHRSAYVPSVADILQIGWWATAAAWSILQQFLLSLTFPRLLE
- Sequence (P54289 957-1103 partner limits assumed): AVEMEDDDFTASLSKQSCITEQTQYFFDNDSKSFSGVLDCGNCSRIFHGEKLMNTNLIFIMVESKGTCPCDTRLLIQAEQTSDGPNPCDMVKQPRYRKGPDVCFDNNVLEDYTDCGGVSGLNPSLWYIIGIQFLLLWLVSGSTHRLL
- Sequence (P54284 whole entry partner): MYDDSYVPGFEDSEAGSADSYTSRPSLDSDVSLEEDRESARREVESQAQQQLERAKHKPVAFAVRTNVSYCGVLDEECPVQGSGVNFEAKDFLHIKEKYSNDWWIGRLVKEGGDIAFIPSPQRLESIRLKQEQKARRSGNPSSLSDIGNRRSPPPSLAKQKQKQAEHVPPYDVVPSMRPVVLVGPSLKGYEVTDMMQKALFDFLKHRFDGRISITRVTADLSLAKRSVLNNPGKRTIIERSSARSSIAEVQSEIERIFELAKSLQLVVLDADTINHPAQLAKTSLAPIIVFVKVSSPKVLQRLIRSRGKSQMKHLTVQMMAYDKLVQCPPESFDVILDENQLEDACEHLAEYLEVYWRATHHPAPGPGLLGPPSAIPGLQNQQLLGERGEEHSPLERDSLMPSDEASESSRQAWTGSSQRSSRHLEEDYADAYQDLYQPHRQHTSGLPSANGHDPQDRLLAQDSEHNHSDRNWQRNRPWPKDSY
- experimental_details: Block of Cav2.2 (N-type) channels expressed in HEK293 cells
- Format: cell-based
- reported_conditions: HEK293; read-out: Cav 2.2 % Inh @ 10 μM
reported_endpoint: inhibition at 10 µM

Consider the following illustrative entries.
compound | inhibition at 10 µM
CC(C)(C)c1cc(N2CCN(C(=O)c3scc(S(C)(=O)=O)c3Cl)CC2)cc(C(C)(C)C)c1 [Compound 6] | 86%
Cc1ccc(C(=O)N2CCN(c3cc(C(C)(C)C)cc(C(C)(C)C)c3)CC2)c(C)c1 [Compound 15] | 96%
CC(C)c1cc(C(=O)N2CCN(c3cc(C(C)(C)C)cc(C(C)(C)C)c3)CC2)cs1 [Compound 23] | 90%
CC(C)(C)c1cc(N2CCN(C(=O)c3ccc(F)cc3)CC2)cc(C(C)(C)C)c1 [Compound 4] | 92%
Cc1nc(C(=O)N2CCN(c3cc(C(C)(C)C)cc(C(C)(C)C)c3)CC2)c(C(F)(F)F)o1 [Compound 37] | 94%
CC(C)(C)c1cc(N2CCN(C(=O)c3csc(-c4cccc(C(F)(F)F)c4)n3)CC2)cc(C(C)(C)C)c1 [Compound 18] | 59%

Exercise: Value lookup for inhibition at 10 µM; key = CC(C)(C)c1cc(N2CCN(C(=O)c3ccc(C(O)(C(F)(F)F)C(F)(F)F)cc3)CC2)cc(C(C)(C)C)c1 [Compound 36]
Solution: 32%

Exercise: Could you tell me which inhibition at 10 µM is on file for CC(C)(C)c1cc(N2CCN(C(=O)c3cc(C4CC4)nc4ccccc34)CC2)cc(C(C)(C)C)c1 [Compound 40] ?
Solution: 86%

Exercise: What does the data say about its inhibition at 10 µM? Entry: CC(C)c1cc(C(=O)N2CCN(c3cc(C(C)(C)C)cc(C(C)(C)C)c3)CC2)c2cnn(C(C)C)c2n1 [Compound 27]
Solution: 59%

Exercise: Look up inhibition at 10 µM: Cc1oc(C(C)(C)C)cc1C(=O)N1CCN(c2cc(C(C)(C)C)cc(C(C)(C)C)c2)CC1 [Compound 35]
Solution: 77%

Exercise: Given the compound CC1CCc2sc(C(=O)N3CCN(c4cc(C(C)(C)C)cc(C(C)(C)C)c4)CC3)cc2C1 (stereo not drawn) [Compound 43] , what is its reported inhibition at 10 µM?
Solution: 46%

Exercise: Can you look up the measured inhibition at 10 µM of CC(C)(C)c1cc(N2CCN(C(=O)COc3ccc(F)cc3)CC2)cc(C(C)(C)C)c1 [Compound 13] for me?
Solution: 97%

Exercise: inhibition at 10 µM lookup needed for CC(C)(C)C(=O)Nc1ccncc1C(=O)N1CCN(c2cc(C(C)(C)C)cc(C(C)(C)C)c2)CC1 [Compound 7] , thanks.
Solution: 97%

Exercise: Data request, read-out inhibition at 10 µM, for CC(C)(C)c1cc(N2CCN(C(=O)c3ccc(S(C)(=O)=O)cc3Cl)CC2)cc(C(C)(C)C)c1 [Compound 5]
Solution: 85%

Exercise: Form field: reported inhibition at 10 µM of CCOc1ncccc1C(=O)N1CCN(c2cc(C(C)(C)C)cc(C(C)(C)C)c2)CC1 [Compound 38]
Solution: 107%

Exercise: Need inhibition at 10 µM, item CCSc1ncccc1C(=O)N1CCN(c2cc(C(C)(C)C)cc(C(C)(C)C)c2)CC1 [Compound 45]
Solution: 97%

Exercise: Reported inhibition at 10 µM for CCCSc1ncccc1C(=O)N1CCN(c2cc(C(C)(C)C)cc(C(C)(C)C)c2)CC1 [Compound 31] : what is it?
Solution: 99%

Exercise: # input compound: CC(C)(C)c1cc(N2CCN(C(=O)c3nsc(Cl)c3Cl)CC2)cc(C(C)(C)C)c1 [Compound 46] ; wanted: its inhibition at 10 µM
Solution: 79%
